- System: mock-infected MT-4 cells
- run.description: cytotoxicity in mock-infected MT-4 cells (MTT)
Kindly supply the reported pCC50 (−log CC50) values for the records listed here.
One number for each entry, in M.

mol | tested.target | unit.of.measurement | pCC50 (−log CC50)
Cc1cc(CN(C)CCC#N)cc(C)c1Nc1ccnc(Nc2ccc(C#N)cc2)n1 | mock-infected MT-4 cells | M | 5.0
Cc1cc(/C=C/C(=O)N(C)CC#N)cc(C)c1Oc1ccnc(Nc2ccc(C#N)cc2)n1 | mock-infected MT-4 cells | M | 5

Query (compound): Cc1cc(/C=C/C(=O)N(C)CCC#N)cc(C)c1Oc1ccnc(Nc2ccc(C#N)cc2)n1 ; field requested: pCC50 (−log CC50) 5.1

* * *

- Tested on: mock-infected MT-4 cells
- run.description: cytotoxicity in mock-infected MT-4 cells (MTT)
reported.metric: pCC50 (−log CC50) (M)
One number for each entry, in M.

Consider the worked cases shown below.
compound | reported.metric | assay.result
C/C(=C\C#N)c1cc(C)c(Nc2ccnc(Nc3ccc(C#N)cc3)n2)c(C)c1 | pCC50 (−log CC50) | 4.5
Cc1cc(CC(C#N)C#N)cc(C)c1Nc1ccnc(Nc2ccc(C#N)cc2)n1 | pCC50 (−log CC50) | 6.4

Working through the 4 compounds below one at a time, give pCC50 (−log CC50) for each.
1. C/C(C#N)=C/c1cc(C)c(Nc2ccnc(Nc3ccc(C#N)cc3)n2)c(C)c1 [Compound 151]
2. CC(=NO)c1cc(C)c(Nc2ccnc(Nc3ccc(C#N)cc3)n2)c(C)c1
3. COc1cc(C=C(C)C#N)ccc1Nc1ccnc(Nc2ccc(C#N)cc2)n1
4. Cc1cc(/C=C/C#N)cc(Br)c1Nc1ccnc(Nc2ccc(C#N)cc2)n1

1: 5.5; 2: 5.0; 3: 4; 4: 5.7

Working through the 3 compounds below one at a time, give pCC50 (−log CC50) for each.
1. N#C/C=C/c1ccc(Nc2ccnc(Nc3ccc(C#N)cc3)n2)c(Br)c1
2. COc1cc(CCC#N)ccc1Nc1ccnc(Nc2ccc(C#N)cc2)n1
3. COc1cc(/C=C/C#N)ccc1Nc1ccnc(Nc2ccc(C#N)cc2)n1

1: 4; 2: 5; 3: 4

* * *

- Tested on: mock-infected MT-4 cells
- run.description: cytotoxicity in mock-infected MT-4 cells (MTT)
reported.metric: pCC50 (−log CC50) (M)
One number for each entry, in M.

Consider the worked cases shown below.
compound | unit.of.measurement | assay.result
CCN(C)C(=O)/C=C/c1cc(C)c(Oc2ccnc(Nc3ccc(C#N)cc3)n2)c(C)c1 | M | 5.5
Cc1cc(/C=C/C#N)cc(-c2ccco2)c1Nc1ccnc(Nc2ccc(C#N)cc2)n1 | M | 5
Cc1cc(C=C(C#N)CC#N)cc(C)c1Nc1ccnc(Nc2ccc(C#N)cc2)n1 (mixture of isomers) | M | 5.7
Cc1cc(CN(C)CCC#N)cc(Br)c1Nc1ccnc(Nc2ccc(C#N)cc2)n1 | M | 5.3
CC/C(=C\C#N)c1cc(C)c(Nc2ccnc(Nc3ccc(C#N)cc3)n2)c(C)c1 | M | 4.9
CC(C#N)=Cc1cc(C)c(Nc2ccnc(Nc3ccc(C#N)cc3)n2)c(Br)c1 | M | 6.2
CC(C#N)=Cc1cc(C)c(Nc2ccnc(Nc3ccc(C#N)cc3)n2)c(Cl)c1 | M | 5.7
CC(=CC#N)c1cc(C)c(Oc2ccnc(Nc3ccc(C#N)cc3)n2)c(C)c1 | M | 4.8

Working through the 4 compounds below one at a time, give pCC50 (−log CC50) for each.
1. Cc1cc(/C=C\C#N)cc(C)c1Nc1ccnc(Nc2ccc(C#N)cc2)n1
2. C/C(C#N)=C/c1cc(C)c(Nc2ccnc(Nc3ccc(C#N)cc3)n2)c(C)c1 [Compound 11]
3. Cc1cc(/C=C/C(=O)N(C)C)cc(C)c1Oc1ccnc(Nc2ccc(C#N)cc2)n1
4. CCN(C)C(=O)/C=C/c1cc(C)c(Nc2ccnc(Nc3ccc(C#N)cc3)n2)c(C)c1

[6.3, 5.7, 5, 5.5]
